Measured Delta TM, listed per entry for reference.
Test system: dog STING (dSTING)
Assay: Dog differential scanning fluorimetry (DSF) assay, thermal shift of dog STING protein
Format: binding
Settings: DSF (dDSF); 100 μM compound, 3 μM dog STING protein; Tm with ligand minus Tm of protein alone
The answer is to be given in °C; state only the numeric part.

As a guide, the following entries are already answered.
molecule: Cc1cccc2c(-c3cccc4nn(C)c(F)c34)nn(-c3ccc(N4C[C@@H]5C[C@H]4C[C@H]5C(=O)O)nc3)c12 [Example 73-2]
Delta TM / °C: 33.3

molecule: Cc1cccc2c(-c3ccc(F)c4nn(C)c(F)c34)nn(-c3ccc(N4CC[C@@H](CC(=O)O)C4)nc3)c12
Delta TM / °C: 30.0

molecule: Cc1cccc2c(-c3cccc4nn(C)c(F)c34)nn(-c3ccc(N4CCOC(CC(=O)O)C4)nc3)c12 (single isomer, unassigned) [Example 72-1]
Delta TM / °C: 30.0

Attention now turns to another entry.
Problem: Could you share which Delta TM value was measured for `Cc1c(F)ccc2c(-c3cccc4nn(C)c(F)c34)nn(-c3ccc(N4CCC(C(=O)O)CC4)nc3)c12` ?
Solution: 34.5

---

Measured pEC50, listed per entry for reference.
Target: STING (Canis lupus familiaris, UniProt A0A8I3MH52)
Sequence (A0A8I3MH52 1-374): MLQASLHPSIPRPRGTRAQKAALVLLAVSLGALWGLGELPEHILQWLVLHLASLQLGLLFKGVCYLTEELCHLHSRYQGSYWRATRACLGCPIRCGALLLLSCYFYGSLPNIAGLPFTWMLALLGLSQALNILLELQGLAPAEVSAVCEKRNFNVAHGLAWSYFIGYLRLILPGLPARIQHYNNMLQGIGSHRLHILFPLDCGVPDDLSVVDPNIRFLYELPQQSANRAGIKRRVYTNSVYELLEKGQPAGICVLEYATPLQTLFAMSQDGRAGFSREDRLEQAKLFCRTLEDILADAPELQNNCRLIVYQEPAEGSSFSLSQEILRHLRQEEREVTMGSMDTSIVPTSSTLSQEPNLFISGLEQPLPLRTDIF
Experiment: Dog whole blood (dWB) assay, IFNb secretion by ELISA
Conditions: canine Interferon-beta (IFNb) ELISA, 4 h incubation at 37° C.
Answer as the number alone; pEC50 is minus log10 of concentration in mol/L.

compound: Cc1cccc2c(-c3c(F)ccc4nn(C)cc34)nn(-c3ccc(N4CCC(C(=O)O)CC4)nc3)c12
pEC50: 6.61
//
compound: CC(=O)N1C[C@H]2C[C@@H]1CN2c1ccc(-n2nc(-c3c(F)cc(F)c4nn(C)cc34)c3cccc(C)c32)cn1
pEC50: 6.17
//
compound: CC(=O)N1CC2CCC1CN2c1ccc(-n2nc(-c3cccc4nn(C)c(F)c34)c3cccc(C)c32)cn1 (stereo not shown)
pEC50: 6.66

Problem: Could you share which pEC50 value was measured for `Cc1cccc2c(-c3c(F)ccc4nn(C)cc34)nn(-c3ccc(N4CC[C@H](CC(=O)O)C4)nc3)c12` ?
Solution: 6.55

---

Test system: dog STING (dSTING)
Test: Dog differential scanning fluorimetry (DSF) assay, thermal shift of dog STING protein
Assay type: binding
Details: DSF (dDSF); 100 μM compound, 3 μM dog STING protein; Tm with ligand minus Tm of protein alone
assayMetric: Delta TM (°C)
The answer is to be given in °C; state only the numeric part.

molecule: CC(=O)N1C[C@H]2C[C@@H]1CN2c1ccc(-n2nc(-c3c(F)cc(F)c4nn(C)cc34)c3cccc(C)c32)cn1 [Example 51]
assayedSystem: dog STING (dSTING)
result: 29.0

molecule: CC(=O)N1C[C@@H]2C[C@H]1CN2c1ccc(-n2nc(-c3c(F)cc(F)c4nn(C)cc34)c3cccc(C)c32)cn1 [Example 50]
assayedSystem: dog STING (dSTING)
result: 25.0

molecule: Cc1cc(F)cc2c(-c3c(F)ccc4nn(C)cc34)nn(-c3ccc(N4CCC(C(=O)O)CC4)nc3)c12 [Example 62]
assayedSystem: dog STING (dSTING)
result: 38.0

molecule: Cc1cccc2c(-c3cccc4nn(C)c(F)c34)nn(-c3ccc(N4CC[C@@H](CC(=O)O)C4)nc3)c12 [Example 16]
assayedSystem: dog STING (dSTING)
result: 34.0

molecule: Cc1cccc2c(-c3cc(F)cc4nn(C)cc34)nn(-c3ccc(N4CCC(C(=O)O)CC4)nc3)c12 [Example 33]
assayedSystem: dog STING (dSTING)
result: 22.5

Attention now turns to another entry.
Problem: Could you share which Delta TM value was measured for Cc1cccc2c(-c3c(F)ccc4nn(C)c(F)c34)nn(-c3ccc(N4C[C@@H]5[C@H](C4)[C@H]5C(=O)O)nc3)c12 [Example 74] ?
Solution: 36.4
